# Target System: Tyrosine-protein kinase receptor UFO (Homo sapiens, UniProt P30530)
# Sequence (P30530 whole entry): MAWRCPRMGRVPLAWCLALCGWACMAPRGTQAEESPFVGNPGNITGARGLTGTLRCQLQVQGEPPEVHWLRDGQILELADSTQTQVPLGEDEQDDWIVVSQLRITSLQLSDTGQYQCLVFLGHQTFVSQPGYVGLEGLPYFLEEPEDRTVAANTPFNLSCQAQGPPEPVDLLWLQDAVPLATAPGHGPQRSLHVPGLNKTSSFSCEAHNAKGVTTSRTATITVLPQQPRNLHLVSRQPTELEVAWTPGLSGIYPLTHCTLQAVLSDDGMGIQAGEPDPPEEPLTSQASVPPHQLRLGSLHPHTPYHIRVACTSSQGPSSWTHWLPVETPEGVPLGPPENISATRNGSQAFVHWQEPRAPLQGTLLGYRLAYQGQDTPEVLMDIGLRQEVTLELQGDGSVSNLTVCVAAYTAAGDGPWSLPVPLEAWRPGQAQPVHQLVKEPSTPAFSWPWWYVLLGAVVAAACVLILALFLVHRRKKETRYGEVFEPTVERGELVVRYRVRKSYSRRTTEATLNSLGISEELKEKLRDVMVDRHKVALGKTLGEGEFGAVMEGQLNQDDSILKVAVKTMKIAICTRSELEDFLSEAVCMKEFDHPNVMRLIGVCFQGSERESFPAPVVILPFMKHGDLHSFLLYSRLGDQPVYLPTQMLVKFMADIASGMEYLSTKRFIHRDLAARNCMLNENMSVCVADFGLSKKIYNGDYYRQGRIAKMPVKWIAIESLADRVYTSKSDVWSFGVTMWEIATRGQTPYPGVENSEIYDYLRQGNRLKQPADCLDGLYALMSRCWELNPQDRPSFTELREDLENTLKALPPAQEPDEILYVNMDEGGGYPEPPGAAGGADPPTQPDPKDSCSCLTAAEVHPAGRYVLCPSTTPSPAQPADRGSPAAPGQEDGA
# Measurement Protocol: Inhibition of human recombinant AXL incubated for 1 to 1.5 hrs by FRET based Z'-Lyte kinase assay
pIC50: −log10 of the molar value.
Entries annotated with measured pIC50
Metric Name: pIC50

>>> df
                           structure_smiles  modifier_sign  result_number
0  CCc1ccc2c(c1)c(=O)c(C(=O)Nc1ccc(Oc3ccnc(Cl)c3)c(F)c1)c(C)n2C              <           5.00
1  Cc1c(C(=O)Nc2ccc(Oc3ncnc4[nH]cc(-c5ccccc5)c34)c(F)c2)c(=O)c2cc(C3CCCC3)ccc2n1C              =           6.70
2  CCc1ccc2c(c1)c(=O)c(C(=O)Nc1ccc(Oc3ncnc4[nH]cc(-c5ccccc5)c34)cc1F)c(C)n2C              =           7.52
3  Cc1c(C(=O)Nc2ccc(Oc3ncnc4[nH]cc(-c5ccccc5)c34)c(F)c2)c(=O)c2cc(C(F)(F)F)ccc2n1C              =           6.82
4  Cc1c(C(=O)Nc2ccc(Oc3ncnc4[nH]cc(-c5ccccc5)c34)c(F)c2)c(=O)c2cc(C3=CCCC3)ccc2n1C              =           5.48
5  Cc1ccc2c(c1)c(=O)c(C(=O)Nc1ccc(Oc3ncnc4[nH]cc(-c5ccccc5)c34)c(F)c1)cn2C              =           6.82
6  COC(=O)c1ccc2c(c1)c(=O)c(C(=O)Nc1ccc(Oc3ncnc4[nH]cc(-c5ccccc5)c34)c(F)c1)c(C)n2C              <           5.00
7  CCc1ccc2c(c1)c(=O)c(C(=O)Nc1ccc(Oc3ccnc4[nH]cc(-c5ccccc5)c34)c(F)c1)c(C)n2C              =           7.52

###

# Target System: UniProt Q12866
# Sequence (Q12866 whole entry): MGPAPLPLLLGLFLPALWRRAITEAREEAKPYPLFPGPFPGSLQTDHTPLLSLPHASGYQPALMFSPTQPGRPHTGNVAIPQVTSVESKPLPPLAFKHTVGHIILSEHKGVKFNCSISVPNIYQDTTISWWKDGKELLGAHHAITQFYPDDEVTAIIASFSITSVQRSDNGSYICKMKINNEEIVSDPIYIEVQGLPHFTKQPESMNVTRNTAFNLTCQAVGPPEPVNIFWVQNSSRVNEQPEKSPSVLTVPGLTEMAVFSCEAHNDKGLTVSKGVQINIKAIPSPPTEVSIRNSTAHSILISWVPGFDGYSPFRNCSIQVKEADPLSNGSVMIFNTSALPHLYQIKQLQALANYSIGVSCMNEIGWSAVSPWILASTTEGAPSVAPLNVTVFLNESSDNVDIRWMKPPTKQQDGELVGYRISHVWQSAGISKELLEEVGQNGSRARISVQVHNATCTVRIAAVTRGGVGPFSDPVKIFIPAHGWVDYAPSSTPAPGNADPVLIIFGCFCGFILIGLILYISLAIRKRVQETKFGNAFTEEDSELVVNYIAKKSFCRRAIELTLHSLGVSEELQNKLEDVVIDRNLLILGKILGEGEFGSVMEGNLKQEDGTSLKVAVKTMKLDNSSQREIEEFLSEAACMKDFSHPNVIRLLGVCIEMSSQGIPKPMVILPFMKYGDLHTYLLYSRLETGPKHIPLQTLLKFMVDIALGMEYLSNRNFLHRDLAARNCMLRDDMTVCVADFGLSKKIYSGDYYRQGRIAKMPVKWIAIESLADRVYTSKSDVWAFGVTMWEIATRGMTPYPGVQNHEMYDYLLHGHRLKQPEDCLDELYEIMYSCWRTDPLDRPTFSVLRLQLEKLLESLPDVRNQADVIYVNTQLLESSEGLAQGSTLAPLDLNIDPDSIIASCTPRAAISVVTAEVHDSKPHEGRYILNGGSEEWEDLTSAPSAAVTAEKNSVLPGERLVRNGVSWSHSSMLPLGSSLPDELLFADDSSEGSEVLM
Metric Name: Kd (nM)

In [3]: df
Out[3]:
                           structure_smiles  unit  result_number
0  CCc1ccc2c(c1)c(=O)c(C(=O)Nc1ccc(Oc3ncnc4cc(OC)c(OC)cc34)c(F)c1)c(C)n2C    nM            1.4

###

# Target System: Tyrosine-protein kinase Blk (Homo sapiens, UniProt P51451)
# Sequence (P51451 whole entry): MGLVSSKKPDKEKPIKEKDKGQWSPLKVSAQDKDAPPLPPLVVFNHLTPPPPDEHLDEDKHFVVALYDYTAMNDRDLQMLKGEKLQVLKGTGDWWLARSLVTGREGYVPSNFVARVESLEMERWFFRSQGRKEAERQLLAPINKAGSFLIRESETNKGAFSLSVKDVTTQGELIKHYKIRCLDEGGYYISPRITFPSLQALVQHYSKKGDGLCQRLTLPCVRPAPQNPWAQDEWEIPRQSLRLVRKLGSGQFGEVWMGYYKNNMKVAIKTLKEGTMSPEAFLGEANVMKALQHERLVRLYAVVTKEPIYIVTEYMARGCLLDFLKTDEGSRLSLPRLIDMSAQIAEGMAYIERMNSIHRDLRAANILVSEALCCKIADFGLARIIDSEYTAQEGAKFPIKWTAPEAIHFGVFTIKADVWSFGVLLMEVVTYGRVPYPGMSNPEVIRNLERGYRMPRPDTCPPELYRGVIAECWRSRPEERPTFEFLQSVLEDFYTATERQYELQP
# Measurement Protocol: Binding affinity to human BLK
pKd: −log10 of the molar value.
Metric Name: pKd

In [3]: df
Out[3]:
                           structure_smiles  result_number
0  CCc1ccc2c(c1)c(=O)c(C(=O)Nc1ccc(Oc3ncnc4cc(OC)c(OC)cc34)c(F)c1)c(C)n2C           6.70

###

# Measurement Protocol: Tmax in Sprague-Dawley rat at 25 mg/kg, po by LC/MS method
# Type: ADME, organism-based
# Experimental Context: in vivo
Recorded Tmax values for a group of molecules are listed next.
Metric Name: Tmax (h)

>>> print(df.to_string())
                           structure_smiles  unit  result_number
0  CCc1ccc2c(c1)c(=O)c(C(=O)Nc1ccc(Oc3ncnc4cc(OC)c(OC)cc34)c(F)c1)c(C)n2C     h              6
1  CCc1ccc2c(c1)c(=O)c(C(=O)Nc1ccc(Oc3ncnc4[nH]cc(-c5ccccc5)c34)c(F)c1)c(C)n2C     h           0.67

###

Collected IC50 values appear next to each entry.
# Test system: MDA-MB-231
# Measurement Protocol: Antiproliferative activity against human MDA-MB-231 cells after 24 to 72 hrs by MTT assay
# Format: functional, cell-based
Metric Name: IC50

>>> df
                           structure_smiles   result
0  CCc1ccc2c(c1)c(=O)c(C(=O)Nc1ccc(Oc3ncnc4cc(OC)c(OC)cc34)c(F)c1)c(C)n2C  > 10 µM
1  CCc1ccc2c(c1)c(=O)c(C(=O)Nc1ccc(Oc3ncnc4[nH]cc(-c5ccccc5)c34)c(F)c1)c(C)n2C  > 10 µM

###

# Target System: STE20-like serine/threonine-protein kinase (Homo sapiens, UniProt Q9H2G2)
# Sequence (Q9H2G2 whole entry): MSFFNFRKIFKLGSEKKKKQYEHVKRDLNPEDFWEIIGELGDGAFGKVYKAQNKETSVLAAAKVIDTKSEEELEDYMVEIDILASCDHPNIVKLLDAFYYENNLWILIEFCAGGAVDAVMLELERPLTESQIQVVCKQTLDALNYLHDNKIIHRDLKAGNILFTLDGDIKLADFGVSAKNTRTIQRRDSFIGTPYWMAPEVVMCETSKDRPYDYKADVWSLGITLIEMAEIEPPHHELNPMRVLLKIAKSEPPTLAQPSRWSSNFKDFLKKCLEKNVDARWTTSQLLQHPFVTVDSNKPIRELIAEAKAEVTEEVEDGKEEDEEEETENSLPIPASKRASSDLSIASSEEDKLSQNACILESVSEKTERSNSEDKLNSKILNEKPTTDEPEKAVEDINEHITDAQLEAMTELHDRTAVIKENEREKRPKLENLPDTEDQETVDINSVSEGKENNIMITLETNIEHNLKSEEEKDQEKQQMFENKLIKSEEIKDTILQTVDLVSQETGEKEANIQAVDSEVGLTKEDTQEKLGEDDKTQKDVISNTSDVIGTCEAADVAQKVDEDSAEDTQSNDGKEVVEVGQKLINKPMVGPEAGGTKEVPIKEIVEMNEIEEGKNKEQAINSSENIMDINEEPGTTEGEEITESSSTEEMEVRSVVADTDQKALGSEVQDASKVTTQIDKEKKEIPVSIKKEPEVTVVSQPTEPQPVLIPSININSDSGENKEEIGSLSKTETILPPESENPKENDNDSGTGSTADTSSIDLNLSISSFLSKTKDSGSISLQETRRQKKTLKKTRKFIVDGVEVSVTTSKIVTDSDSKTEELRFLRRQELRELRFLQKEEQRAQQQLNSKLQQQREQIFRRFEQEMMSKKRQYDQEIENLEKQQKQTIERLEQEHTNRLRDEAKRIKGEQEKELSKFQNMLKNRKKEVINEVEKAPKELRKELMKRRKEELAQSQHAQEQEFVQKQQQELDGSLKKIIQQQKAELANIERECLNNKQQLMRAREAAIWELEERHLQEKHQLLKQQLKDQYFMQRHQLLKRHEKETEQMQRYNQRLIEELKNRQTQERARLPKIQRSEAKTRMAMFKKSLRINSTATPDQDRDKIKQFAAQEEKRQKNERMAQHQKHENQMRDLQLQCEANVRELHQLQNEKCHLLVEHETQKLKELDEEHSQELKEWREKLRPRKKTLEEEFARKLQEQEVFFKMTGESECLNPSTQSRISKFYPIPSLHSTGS
pKd: −log10 of the molar value.
Metric Name: pKd

                           structure_smiles  result_number
0  CCc1ccc2c(c1)c(=O)c(C(=O)Nc1ccc(Oc3ncnc4cc(OC)c(OC)cc34)c(F)c1)c(C)n2C           6.62

###

# Target System: BDNF/NT-3 growth factors receptor (Homo sapiens)
# Sequence (Q16620 whole entry): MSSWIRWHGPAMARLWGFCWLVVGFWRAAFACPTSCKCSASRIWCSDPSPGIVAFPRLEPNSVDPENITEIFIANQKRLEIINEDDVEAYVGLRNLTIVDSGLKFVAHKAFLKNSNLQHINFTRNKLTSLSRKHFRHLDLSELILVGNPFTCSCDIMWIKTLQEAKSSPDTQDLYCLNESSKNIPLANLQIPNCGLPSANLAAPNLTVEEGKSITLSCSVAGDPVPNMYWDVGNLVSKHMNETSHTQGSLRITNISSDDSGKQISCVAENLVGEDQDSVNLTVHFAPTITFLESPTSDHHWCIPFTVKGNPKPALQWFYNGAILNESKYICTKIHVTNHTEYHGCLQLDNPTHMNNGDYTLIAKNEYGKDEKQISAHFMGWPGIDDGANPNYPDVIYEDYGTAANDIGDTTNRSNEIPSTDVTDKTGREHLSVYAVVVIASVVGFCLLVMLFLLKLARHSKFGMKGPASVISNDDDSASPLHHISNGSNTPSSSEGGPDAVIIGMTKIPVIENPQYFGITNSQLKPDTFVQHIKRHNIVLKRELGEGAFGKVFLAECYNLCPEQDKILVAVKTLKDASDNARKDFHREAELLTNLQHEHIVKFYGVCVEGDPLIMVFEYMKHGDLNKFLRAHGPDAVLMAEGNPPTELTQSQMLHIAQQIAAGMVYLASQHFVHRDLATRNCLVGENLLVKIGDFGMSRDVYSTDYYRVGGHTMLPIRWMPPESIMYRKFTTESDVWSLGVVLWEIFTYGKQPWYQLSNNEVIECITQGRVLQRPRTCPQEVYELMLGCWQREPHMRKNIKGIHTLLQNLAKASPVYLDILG
pKd: −log10 of the molar value.
Metric Name: pKd

                           structure_smiles                             target_system  metric_name  result_number
0  CCc1ccc2c(c1)c(=O)c(C(=O)Nc1ccc(Oc3ncnc4cc(OC)c(OC)cc34)c(F)c1)c(C)n2C  BDNF/NT-3 growth factors receptor (Homo sapiens)          pKd           7.27

###

# Target System: Aurora kinase A (Homo sapiens)
# Sequence (O14965 whole entry): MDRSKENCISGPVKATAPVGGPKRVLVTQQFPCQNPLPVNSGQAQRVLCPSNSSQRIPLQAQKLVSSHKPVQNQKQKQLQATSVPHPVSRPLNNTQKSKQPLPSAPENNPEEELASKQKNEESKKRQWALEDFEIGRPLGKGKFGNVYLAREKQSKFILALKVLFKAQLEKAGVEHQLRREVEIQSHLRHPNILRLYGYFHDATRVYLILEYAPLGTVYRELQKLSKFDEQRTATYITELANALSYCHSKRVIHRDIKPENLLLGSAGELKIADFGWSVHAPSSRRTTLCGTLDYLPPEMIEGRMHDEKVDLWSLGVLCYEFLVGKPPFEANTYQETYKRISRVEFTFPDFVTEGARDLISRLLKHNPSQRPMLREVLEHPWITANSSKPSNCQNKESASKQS
# Measurement Protocol: Inhibition of aurora A (unknown origin)
Metric Name: IC50

In [3]: df
Out[3]:
                           structure_smiles  metric_name  result
0  CCc1ccc2c(c1)c(=O)c(C(=O)Nc1ccc(Oc3ncnc4cc(OC)c(OC)cc34)c(F)c1)c(C)n2C         IC50  192 nM

###

# Target System: Dual specificity mitogen-activated protein kinase kinase 5 (Homo sapiens, UniProt Q13163)
# Sequence (Q13163 whole entry): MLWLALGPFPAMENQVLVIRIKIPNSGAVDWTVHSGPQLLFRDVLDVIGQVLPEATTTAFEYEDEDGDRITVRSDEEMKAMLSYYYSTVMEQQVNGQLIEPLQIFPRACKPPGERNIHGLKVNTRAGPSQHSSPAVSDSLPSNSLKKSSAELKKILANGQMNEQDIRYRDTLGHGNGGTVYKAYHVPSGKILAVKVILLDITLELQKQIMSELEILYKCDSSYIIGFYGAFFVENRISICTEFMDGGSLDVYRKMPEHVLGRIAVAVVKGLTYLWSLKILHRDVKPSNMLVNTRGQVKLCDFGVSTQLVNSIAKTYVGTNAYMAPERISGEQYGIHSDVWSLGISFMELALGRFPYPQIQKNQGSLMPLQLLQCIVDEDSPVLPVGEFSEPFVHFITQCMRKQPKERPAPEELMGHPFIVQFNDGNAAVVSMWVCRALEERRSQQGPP
# Measurement Protocol: Binding affinity to human MEK5
Metric Name: Kd (nM)

                           structure_smiles  result_number
0  CCc1ccc2c(c1)c(=O)c(C(=O)Nc1ccc(Oc3ncnc4cc(OC)c(OC)cc34)c(F)c1)c(C)n2C             38

###

# Measurement Protocol: Half life in Sprague-Dawley rat at 2.5 mg/kg, iv by LC/MS method
# Assay type: ADME, organism-based
# Experimental Context: in vivo
Metric Name: half-life (h)

                           structure_smiles  unit  result_number
0  CCc1ccc2c(c1)c(=O)c(C(=O)Nc1ccc(Oc3ncnc4cc(OC)c(OC)cc34)c(F)c1)c(C)n2C     h           25.2

###

# pIC50 per entry
# Target System: UniProt:P30530
# Measurement Protocol: Inhibition of human recombinant AXL incubated for 1 to 1.5 hrs by FRET based Z'-Lyte kinase assay
pIC50: −log10 of the molar value.
Metric Name: pIC50

>>> df
                           structure_smiles   target_system  metric_name  result_number
0  CCn1c(C)c(C(=O)Nc2ccc(Oc3ncnc4[nH]cc(-c5ccccc5)c34)c(F)c2)c(=O)c2cc(C)ccc21  UniProt:P30530        pIC50           6.82
1  CCc1ccc2c(c1)c(=O)c(C(=O)Nc1ccc(Oc3ccnc4occ(-c5ccccc5)c34)c(F)c1)c(C)n2C  UniProt:P30530        pIC50           6.72
2  Cc1ccc2c(c1)c(=O)c(C(=O)Nc1ccc(Oc3ncnc4[nH]cc(-c5ccccc5)c34)c(F)c1)c(C)n2C  UniProt:P30530        pIC50           7.00
3  Cc1c(C(=O)Nc2ccc(Oc3ncnc4[nH]cc(-c5ccccc5)c34)c(F)c2)c(=O)c2cc(C3CC3)ccc2n1C  UniProt:P30530        pIC50           6.64
